- system: μ-receptor (Homo sapiens (Human))
- assay-summary: Receptor binding, competitive displacement of [3H]DAMGO
- assay-context: 0.25 nM [3H]DAMGO, CHO cell membrane protein, 60 min at 25° C.
pKi: −log10 of the molar value. Structures can show the parent of a compound that is named as a salt.
Record form. Attribute: pKi. Fill in for each entry.

Known pKi results, listed for orientation:
> print(dat)
                                   compound  reported.result
1  COC1(c2cccc(C(N)=O)c2)C2CCCC1CN(C1CC3(COC3)C1)C2.O=C(O)CC(O)C(=O)O (stereo not drawn) [Compound 133]           > 9.00
2  COC1(c2ccnc(C(N)=O)c2)C2CCCC1CN(C1CCC3(CC1)COC3)C2.O=C(O)CC(O)C(=O)O (stereo not drawn) [Compound 158]     8.30 to 9.00
3  COC1(c2ccnc(C(N)=O)c2)C2CCCC1CN(Cc1cnnn1C)C2 (stereo not drawn) [Compound 125, hydrochloride]           < 8.30
4  COC1(c2cccc(C(N)=O)c2)C2CCCC1CN(Cc1ccccc1)C2 (stereo not drawn) [Compound 21, hydrochloride]           > 9.00
5  CCOC1(c2cccc(C(N)=O)c2)C2CCCC1CN(CC1CC1)C2 (stereo not drawn) [Compound 30, hydrochloride]           > 9.00

Return reported pKi values for all items listed beneath this line.
1. COC1(c2cccc(C(N)=O)c2)C2CCCC1CN(C[C@@H]1C[C@@H]3C[C@@H]3C1)C2 (stereo partly drawn) [Compound 156, hydrochloride]
2. COC1(c2ccc(C(N)=O)s2)C2CCCC1CN(C1CCCCC1)C2 (stereo not drawn) [Compound 101, hydrochloride]
3. Cl.[2H]C([2H])([2H])N1CC2CCCC(C1)C2(OC)c1cccc(C(N)=O)c1 (stereo not drawn) [Compound 54]
4. COC1(c2cccc(C(N)=O)c2)C2CCCC1CN(C1CC3(CCOCC3)C1)C2 (stereo not drawn) [Compound 6, hydrochloride]
5. COC1(c2ccnc(C(N)=O)c2)C2CCCC1CN(C1CCCOC1)C2 (stereo not drawn) [Compound 111, hydrochloride]
6. COC1(c2cccc(C(N)=O)c2)C2CCCC1CN(C1CCC3(CC1)COC3)C2 (stereo not drawn) [Compound 3]

1. > 9.00
2. 8.30 to 9.00
3. > 9.00
4. > 9.00
5. < 8.30
6. > 9.00

Dear reader, for each entry below, please note its pKi.
1. COC1(c2ccnc(C(N)=O)c2)C2CCCC1CN([C@H]1C[C@@H](OC)C1)C2 (stereo partly drawn) [Compound 139, hydrochloride]
2. COC1(c2ccnc(C(N)=O)c2)C2CCCC1CN([C@@H]1CCCOC1)C2.Cl (stereo partly drawn) [Compound 60, hydrochloride]
3. COC1(c2ccnc(C(N)=O)c2)C2CCCC1CN([C@H]1C[C@@H](F)C1)C2 (stereo partly drawn) [Compound 2, hydrochloride]

1. > 9.00
2. 8.30 to 9.00
3. > 9.00

Lab note: need pKi with μ-receptor (Homo sapiens (Human)) for entry CCCN1CC2CCCC(C1)C2(OC)c1cccc(C(N)=O)c1 (stereo not drawn) [Compound 47, hydrochloride] , please look it up. > 9.00

Reference source: patent US10604489B2
